Would you mind telling me the reported GI50 of each entry?
system: SK-MEL-28; test: NCI tumour cell line growth inhibition, 48 h
Calls of active or inactive are those of the source. Rule as the data show it: active = GI50 up to about 1.1 µM and inactive = higher.

Bench note: what GI50 did CCCCCCC1OC23OC1CCC2C(O)CCC3O (stereo unspecified) show? > 100 µM (inactive)

Now consider CCOc1cc(-c2nc3ccccn3c2/N=C/c2cc([N+](=O)[O-])cc([N+](=O)[O-])c2O)ccc1O and answer again. > 100 µM (inactive)

Now consider N/C=N/S(=O)(=O)c1ccc(NC(=O)COC(=O)c2cccc3c(=O)c4ccccc4[nH]c23)cc1 and answer again. > 100 µM (inactive)

Now consider COC(=O)[C@]1(C)CCCC2(C)C3=C(CCC21)CC1(CC3)SCCS1 (stereo partly specified) and answer again. > 10 µM (inactive)

Now consider N#C/C=C1\C=CC(O)C(O)C1OC1OC(CO)C(O)C(O)C1O (stereo unspecified) and answer again. > 100 µM (inactive)

Now consider Cc1cc(/N=C/c2ccc(N(C)C)cc2)n(-c2ccccc2)n1 and answer again. > 100 µM (inactive)

Now consider CC(=O)OC1(C)C=CC(=O)C=C1 and answer again. 23.6 µM (inactive)

Now consider O=C(c1nsc(Cl)c1Cl)N1CCCCC1 and answer again. > 100 µM (inactive)

Now consider COc1cccc(/C=N/NC(N)=O)c1O and answer again. > 100 µM (inactive)

Now consider COC(=O)C1(O)C(c2ccccc2)NC2(C)CCCC21 (stereo unspecified) and answer again. > 100 µM (inactive)

Now consider Cc1nc2ccccc2c(=O)n1/N=C(\N=N\c1ccccc1)c1ccccc1Cl and answer again. 79.3 µM (inactive)

---

test system: OVCAR-5; assay: NCI tumour cell line growth inhibition, 48 h
Activity calls are given as the source filed them. No stated cut-off is given here; in the data, active = GI50 up to about 1.1 µM and inactive = higher.
Would you mind telling me the reported GI50 of each entry?

Bench note: what GI50 did CC(C)C1=CC23CCC4C(C)(C(=O)O)CCCC4(C)C2CC1C1C(=O)N(c2ccccc2N2C(=O)C4C5CC6C7(C)CCCC(C)(C(=O)O)C7CCC6(C=C5C(C)C)C4C2=O)C(=O)C13 (stereo not given) show? 12.2 µM (inactive)

Now consider O=C(Nc1ccccc1F)c1cc2ccc(O)cc2o/c1=N\c1ccccc1F and answer again. 4.5 µM (inactive)

Now consider O=C1/C(=C/c2cccnc2)C(n2cccc2)c2c(Br)sc(Br)c21 (stereo not given) and answer again. 15 µM (inactive)

Now consider Cc1cccc2nc3cc(O)cc(O)c3c(O)c12 and answer again. > 10 µM (inactive)

Now consider CN(CCCN1CCCC1)CCCN(C)C(=O)Cc1ccc(Cl)c(Cl)c1 and answer again. 29.4 µM (inactive)

Now consider Cc1c(C(=O)O)n(C)c(=O)n(C)c1=O and answer again. > 100 µM (inactive)

Now consider O=C(Nc1ccccc1)OC1OC(COC(=O)c2ccccc2)C(OC(=O)c2ccccc2)C1OS(=O)(=O)c1ccc([N+](=O)[O-])cc1 (stereo not given) and answer again. > 100 µM (inactive)

Now consider Cc1cc2oc(C)c(S(=O)(=O)NC(=O)Nc3ccc(Cl)cc3)c(=O)c2c(=O)o1 and answer again. > 100 µM (inactive)

Now consider N#Cc1c(O)c(C=O)c(=O)n2c1[nH]c1ccccc12 and answer again. > 100 µM (inactive)

Now consider CC(=O)Nc1ccc(/C=C(\NC(=O)c2ccccc2)c2nc3ccc4c(c3[nH]2)C(=O)c2ccccc2C4=O)cc1 and answer again. > 100 µM (inactive)

Now consider CCN1CC2(C)CC[C@@H](OC)C34[C@@H]2[C@H](OC(C)=O)C2(OCO[C@@]25C[C@H](OC)C2C[C@]3(O)[C@@H]5[C@H]2O)[C@H]14 and answer again. > 100 µM (inactive)

Now consider COc1c2c(c3c(c1OC)c(=O)c1ccccc1n3C)OCO2 and answer again. > 100 µM (inactive)

Now consider CN1CC[C@]2(C)c3c(O)cccc3CC3CCCC1C32C (stereo not given in full) and answer again. > 100 µM (inactive)

Now consider CC(Cc1ccc(O)cn1)(NC(=O)c1ccccc1)C(=O)O (stereo not given) and answer again. > 100 µM (inactive)

Now consider Cc1c(Cl)c(=O)oc2cc(OCC(=O)c3ccccc3)ccc12 and answer again. > 100 µM (inactive)

Now consider CC(C)CNc1nc(N)nc(O)c1NC=O and answer again. > 100 µM (inactive)

Now consider CN1C/C(=C\c2ccc(Cl)cc2)C(=O)/C(=C/c2ccc(Cl)cc2)C1 and answer again. 3.34 µM (inactive)

Now consider COc1ccccc1-n1c(NN)nc2ccc(Br)cc2c1=O and answer again. 18.2 µM (inactive)

Now consider COc1cccc(/C=N/NC(N)=O)c1O and answer again. > 100 µM (inactive)

Now consider COc1ccc(N2C(=O)/C(=C\c3cccc(Oc4ccccc4)c3)SC2c2ccccc2)cc1 (stereo not given) and answer again. > 100 µM (inactive)

---

system: KM12; test: NCI tumour cell line growth inhibition, 48 h
Calls of active or inactive are those of the source. Cut-off read from the data, not from the text of the source: active = GI50 up to about 1.1 µM and inactive = higher. Non-standard residues stand in square brackets, D forms with d. Residues, ends and D or L forms follow the SMILES beside them. *: point of attachment. Benzoyl(4-OMe) = COc1ccc(C(=O)*)cc1; 2Thi = N[CH](Cc1cccs1)C(=O)O
endpoint: GI50

Bench note: what GI50 did CC(Cc1ccc(O)cn1)(NC(=O)c1ccccc1)C(=O)O (stereo not given) show? > 100 µM (inactive)

Now consider N=C(N)c1ccc(/N=N\c2c(O)ccc3cc4c(/N=N\c5ccc(C(=N)N)cc5)c(O)ccc4cc23)cc1 and answer again. > 100 µM (inactive)

Now consider COc1cc(/C=C(\NC(=O)c2ccccc2)c2nc3ccc4c(c3[nH]2)C(=O)c2ccccc2C4=O)cc(OC)c1OC and answer again. 8.05 µM (inactive)

Now consider CCOC(=O)c1c[nH]c2cc3c(cc2c1=O)CCS3(=O)=O.CCOC(=O)c1c[nH]c2ccc3c(c2c1=O)S(=O)(=O)CC3 and answer again. > 100 µM (inactive)

Now consider CC1=CP(=O)(c2c(C(C)C)cc(C(C)C)cc2C(C)C)CCC1Cl (stereo not given) and answer again. 17.3 µM (inactive)

Now consider O=[PH](O)c1cccnc1 and answer again. > 100 µM (inactive)

Now consider COc1ccc(N2C(=O)/C(=C\c3cccc(Oc4ccccc4)c3)SC2c2ccccc2)cc1 (stereo not given) and answer again. 45 µM (inactive)

Now consider Cc1nc2ccccc2c(=O)n1NC(=O)c1ccccc1[N+](=O)[O-] and answer again. > 100 µM (inactive)

Now consider COCCOCOc1ccc(OCOCCOC)c2c1C(=O)c1ccccc1C2=O and answer again. > 75.9 µM (inactive)

Now consider COc1ccc(NC(=O)CSc2nnc(-c3ccc(NC(C)=O)cc3)o2)cc1 and answer again. 15.1 µM (inactive)

Now consider COc1ccc(-c2c(C#N)c(O)n(NS(=O)(=O)c3ccc(C)cc3)c(=O)c2C#N)cc1 and answer again. > 100 µM (inactive)

Now consider Cn1nc(-c2ccccc2NC(=O)C(F)(F)F)c(=O)n(C)c1=S and answer again. 25.7 µM (inactive)

Now consider CN(C)c1ccc(C2CC(=O)CC(c3ccc(N(C)C)cc3)C23C(=O)NC(=O)NC3=O)cc1 (stereo not given) and answer again. > 25 µM (inactive)

Now consider C(=C\c1ccco1)/c1cccc(/C=C/c2ccco2)n1 and answer again. > 50 µM (inactive)

Now consider C#CCN(Cc1ccc2nc(OC)c(OC)nc2c1)c1cc(OC)c(OC)c(OC)c1 and answer again. 15 µM (inactive)

Now consider CC(C)(C)[Si](C)(C)OCC1OC(n2cc(F)c(=O)[nH]c2=O)CC1O[Si](C)(C)C(C)(C)C (stereo not given) and answer again. 4.19 µM (inactive)

Now consider O=S1(=O)CCCS(=O)(=O)C(c2ccccc2)=C1c1ccccc1 and answer again. 24.7 µM (inactive)

Now consider COC(=O)/C=C1\C(CO[Si](C)(C)C(C)(C)C)OC(n2cc(C)c(=O)n(C)c2=O)C1O[Si](C)(C)C(C)(C)C (stereo not given) and answer again. > 100 µM (inactive)

Now consider N#Cc1nc(C(=O)c2ccccc2)oc1N and answer again. > 100 µM (inactive)

Now consider C[N+]1([O-])C2CCC1CC(OC(=O)C(CO)c1ccccc1)C2 (stereo not given) and answer again. > 100 µM (inactive)

Now consider Cc1ccc(NC(=O)/C(=N/N(C)C)C(C2OC(=O)c3ccccc32)[N+](=O)[O-])cc1 (stereo not given) and answer again. > 100 µM (inactive)

Now consider Nc1ccc(N(S(=O)(=O)c2ccccc2)S(=O)(=O)c2ccccc2)c(Cl)c1 and answer again. 24.2 µM (inactive)

Now consider C=C1C(=O)C([Si](C)(C)C)=C2C=C(C)C3(CC3)C12C (stereo not given) and answer again. 38.3 µM (inactive)

Now consider CSc1nc(Nc2ccccc2Cl)c2c(N)nn(C)c2n1 and answer again. > 100 µM (inactive)

Now consider O=C1CC2C=CC1C2CO (stereo not given) and answer again. > 100 µM (inactive)

Now consider Cc1ccc(S(=O)(=O)n2c3c(c4ccccc42)CCN2C[C@H]([C@H](C)Br)CC[C@@H]32)cc1 and answer again. > 100 µM (inactive)

Now consider c1ccc2c(c1)NCc1cc3ccccc3nc1O2 and answer again. > 100 µM (inactive)

Now consider O=C1/C(=C/c2cccnc2)C(n2cccc2)c2c(Br)sc(Br)c21 (stereo not given) and answer again. 3.43 µM (inactive)

Now consider Oc1c(Cl)c(Cl)c(Cl)c(Cl)c1Cl [PENTACHLOROPHENOL] and answer again. 19.5 µM (inactive)

Now consider O=[N+]([O-])c1ccc(-c2cnc3ccccn23)cc1 and answer again. > 100 µM (inactive)

Now consider COc1cccc(/C=N/NC(N)=O)c1O and answer again. > 100 µM (inactive)

Now consider Cc1cccc2nc3cc(O)cc(O)c3c(O)c12 and answer again. > 10 µM (inactive)

Now consider COc1ccccc1-n1c(NN)nc2ccc(Br)cc2c1=O and answer again. 38.6 µM (inactive)

Now consider CCOC(=O)[C@@H]1OC(c2ccccc2)O[C@H]1C(=O)OCC and answer again. > 100 µM (inactive)

Now consider CN1C/C(=C\c2ccc(Cl)cc2)C(=O)/C(=C/c2ccc(Cl)cc2)C1 and answer again. 0.774 µM (active)

Now consider CCC(C)C(NC(=O)C(Cc1cccs1)NC(=O)C(CC(C)C)NC(=O)C(CC(C)C)NC(=O)C(CCCCN)NC(=O)C(CCCNC(=N)N)NC(=O)c1ccc(OC)cc1)C(=O)NC(CC(C)C)C(N)=O (stereo not given) ({Benzoyl(4-OMe)}-RKLL[2Thi]IL-NH2; configuration not given here) and answer again. > 100 µM (inactive)

Now consider O=C(c1cc(Br)ccc1O)c1cc(Br)ccc1O and answer again. 17.1 µM (inactive)

Now consider CCOc1cc(-c2nc3ccccn3c2/N=C/c2cc([N+](=O)[O-])cc([N+](=O)[O-])c2O)ccc1O and answer again. > 100 µM (inactive)

Now consider Nc1nc(NNc2cccc(F)c2)cc(=O)[nH]1 and answer again. 22.4 µM (inactive)

Now consider COc1ccc(N2C(=O)/C(=C\c3cc(OC)c(OC)c(OC)c3)S(=O)(=O)C2c2ccccc2)cc1 (stereo not given) and answer again. 29.2 µM (inactive)
